B1: LINE1-mini (parent)
chain: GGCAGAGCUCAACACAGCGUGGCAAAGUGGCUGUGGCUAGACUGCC

Variants of: B1
protocolDescription: self-cleavage, relative activity (ratio to wild type); higher = more cleavage; in vitro, sequencing; the parent is a self-cleaving ribozyme
endpoint: self-cleavage

# example entries with known answers
variantId	valueObserved
A16G G22A	0.71
G35A G44C	0.07
U28A C45U	1.28
A6U G40A	0.35
G19A A39G	0.1
G1A A39C	0.14

Hi there! I need self-cleavage for each item below, if you can.
1. G19U A25C
2. U20C G30A
3. U28A C31U
4. A39G C46U
5. A4U A39C

Outgoing:
1. 0.61
2. 0.45
3. 0.54
4. 0.07
5. 0.27
